- subjectOfTest: NAMPT (human, recombinant, C-terminally His-tagged) (Homo sapiens, UniProt P43490)
- Sequence (P43490 whole entry): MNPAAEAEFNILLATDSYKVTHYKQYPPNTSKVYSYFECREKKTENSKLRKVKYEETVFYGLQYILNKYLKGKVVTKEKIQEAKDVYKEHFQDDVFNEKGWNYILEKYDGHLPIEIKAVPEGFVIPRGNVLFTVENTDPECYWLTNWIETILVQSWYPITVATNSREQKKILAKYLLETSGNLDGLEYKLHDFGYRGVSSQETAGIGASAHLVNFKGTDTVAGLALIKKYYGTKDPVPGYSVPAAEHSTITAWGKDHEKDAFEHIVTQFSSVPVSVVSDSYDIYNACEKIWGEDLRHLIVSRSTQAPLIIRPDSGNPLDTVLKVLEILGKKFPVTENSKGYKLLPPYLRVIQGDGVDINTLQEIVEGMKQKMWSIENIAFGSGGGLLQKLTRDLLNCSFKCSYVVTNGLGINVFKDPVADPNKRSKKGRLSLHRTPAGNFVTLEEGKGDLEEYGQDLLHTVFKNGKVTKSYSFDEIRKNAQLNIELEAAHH
- experimentSummary: Time-Resolved Fluorescence Resonance Energy Transfer (TR-FRET) Binding Assay of NAMPT
- experimentalConditions: absence of substrates; 6.8 nM NAMPT, 200 nM probe, equilibrated 3 hours
attributeMeasured: IC50 (µM)
State the answer as a number, implicitly in µM.

Give IC50 for CCOC(=O)C(C)CNC(=O)N(Cc1ccc(C#N)cc1)c1ncc(C(=O)NCCCn2ccnc2)s1 (stereo not shown)
0.34

Give IC50 for COCCC(=O)N(Cc1cnc(C)cn1)c1ncc(C(=O)NCCCn2ccnc2)s1
1.42

---

Parameter pIC50, tested on NAMPT (Homo sapiens, UniProt P43490), listed per item.
Sequence (P43490 whole entry): as above
When answering, recall that pIC50 equals minus log10 of the concentration in mol/L, and write that number alone.

Quote pIC50 with test system NAMPT (Homo sapiens, UniProt P43490) for CC1CN(C(=O)N(Cc2ccc(F)cc2)c2ncc(C(=O)NCCCn3ccnc3)s2)CC(C)O1 (stereo not shown) [Example 70]
8.29

Quote pIC50 with test system NAMPT (Homo sapiens, UniProt P43490) for COCCC(=O)N(Cc1ccc(F)cc1)c1ncc(C(=O)NCCCn2ccnc2)s1 [Example 25]
8.85

Quote pIC50 with test system NAMPT (Homo sapiens, UniProt P43490) for CN1CCN(CC(=O)N(Cc2ccc(F)cc2)c2ncc(C(=O)NCCCn3ccnc3)s2)CC1 [Example 30]
8.64

Quote pIC50 with test system NAMPT (Homo sapiens, UniProt P43490) for COCC(=O)N(CCC(C)C)c1ncc(C(=O)NCCCn2ccnc2)s1 [Example 151]
9.39

---

Give measured IC50 for each item. Keep answers brief.
- subjectOfTest: NAMPT (human, recombinant, C-terminally His-tagged) (Homo sapiens, UniProt P43490)
- experimentSummary: Time-Resolved Fluorescence Resonance Energy Transfer (TR-FRET) Binding Assay of NAMPT
- experimentalConditions: absence of substrates; 6.8 nM NAMPT, 200 nM probe, equilibrated 3 hours
State the answer as a number, implicitly in µM.

Give IC50 for COCCC(=O)N(CCc1cccc(F)c1)c1ncc(C(=O)NCCCn2ccnc2)s1
0.445

Give IC50 for COCCN(C(=O)Cc1ccc(C#N)cc1)c1ncc(C(=O)NCCCn2ccnc2)s1
3.21

Give IC50 for CC(C)CCN(C(=O)C1CC1)c1ncc(C(=O)NCCCn2ccnc2)s1
0.768

Give IC50 for CCOC(=O)CC(NC(=O)N(Cc1ccc(C#N)cc1)c1ncc(C(=O)NCCCn2ccnc2)s1)C(C)C (stereo not drawn)
3.33

Give IC50 for N#Cc1ccc(CCN(C(=O)CC2CCOC2)c2ncc(C(=O)NCCCn3ccnc3)s2)cc1 (stereo not drawn)
1.01

Give IC50 for O=C(NCCCn1ccnc1)c1cnc(N(CC(=O)N2CCOCC2)Cc2ccc(F)cc2)s1
0.384

Give IC50 for CC(C)N1CCN(CC(=O)N(Cc2ccc(F)cc2)c2ncc(C(=O)NCCCn3ccnc3)s2)CC1
3.6

Give IC50 for CCOC(=O)CCNC(=O)N(Cc1ccc(C#N)cc1)c1ncc(C(=O)NCCCn2ccnc2)s1
8.23

Give IC50 for COCCC(=O)N(Cc1cocn1)c1ncc(C(=O)NCCCn2ccnc2)s1
3.89

Give IC50 for CC(C)CCN(C(=O)CCc1ccccc1)c1ncc(C(=O)NCCCn2ccnc2)s1
0.0402

Give IC50 for O=C(NCCCn1ccnc1)c1cnc(N(Cc2ccc(F)cc2)C(=O)CN2CCN(CC3CC3)CC2)s1
7.57

Give IC50 for COCC(=O)N(CCC(C)C)c1ncc(C(=O)NCCCn2ccnc2)s1
0.219

Give IC50 for O=C(NCCCn1ccnc1)c1cnc(N(Cc2ccc(F)cc2)C(=O)CN2CCC3(C2)OCCO3)s1
8.11

Give IC50 for CC(C)CC(=O)N(CCc1ccc(C#N)cc1)c1ncc(C(=O)NCCCn2ccnc2)s1
0.807

Give IC50 for COCCN(C(=O)Cc1ccc(N)cc1)c1ncc(C(=O)NCCCn2ccnc2)s1
0.356

Give IC50 for COCCC(=O)N(CCc1ccc(Cl)cn1)c1ncc(C(=O)NCCCn2ccnc2)s1
3.86

Give IC50 for CCC(COC)NC(=O)N(Cc1ccc(F)cc1)c1ncc(C(=O)NCCCn2ccnc2)s1 (stereo not drawn)
3.2

Give IC50 for CC(C)CCN(C(=O)CC1CCOCC1)c1ncc(C(=O)NCCCn2ccnc2)s1
0.23

Give IC50 for COCCC(=O)N(Cc1ccc(Cl)cn1)c1ncc(C(=O)NCCCn2ccnc2)s1
4.19

Give IC50 for O=C(NCCCn1ccnc1)c1cnc(N(Cc2ccc(F)cc2)C(=O)NCC2CCCO2)s1 (stereo not drawn)
6.58

Give IC50 for O=C(NCCCn1ccnc1)c1cnc(N(Cc2ccc(Cl)cn2)C(=O)C2CCOCC2)s1
0.739
